Reference for the values: patent US20260256738A1

assay comment: Single dose PK profile in Colon-26 tumor bearing mice
Assay type: in vivo
condition set: female, mouse, iv, 25 mg/kg; plasma; 25 mpk i.v.; 2nd of two values in cell; read-out: Tmax
quantity measured: Tmax
Kindly format the answer as number then unit.

-- ask Recorded Tmax of `CNS(=O)(=O)Nc1cccc(Cc2c(CN(C)C)c3ccc(OC(=O)N(C)C)cc3oc2=O)c1F` , please.
-- reply 9.6 min

----------
assay comment: Single dose PK profile in Colon-26 tumor bearing mice
Type: in vivo
condition set: female, mouse, po, 25 mg/kg; tumor; 25 mpk p.o.; 2nd of two values in cell; read-out: Tmax
Protocol: Female mice (either athymic BALC/c nude, or BALB/c mice) were inoculated with a single subcutaneous injection of 0.1 ml of mouse Colon-26 cell suspension (1×10^5 cells per animal) in the right flank region. […]
quantity measured: Tmax (h)
Please reply with the bare figure in h and do not write the unit itself.

-- ask Recorded Tmax of CNS(=O)(=O)Nc1cccc(Cc2c(CN(C)C)c3ccc(OC(=O)N(C)C)cc3oc2=O)c1F [Compound A] , please.
-- reply 1

----------
assay comment: Single dose PK profile in Colon-26 tumor bearing mice
Type: in vivo
condition set: female, mouse, po, 100 mg/kg; tumor; 100 mpk p.o.; 2nd of two values in cell
Protocol: Female mice (either athymic BALC/c nude, or BALB/c mice) were inoculated with a single subcutaneous injection of 0.1 ml of mouse Colon-26 cell suspension (1×10^5 cells per animal) in the right flank region. […]
quantity measured: AUC(0-inf) (ng·h/mL)
Please reply with the bare figure in ng·h/mL and do not write the unit itself.

-- ask Recorded AUC(0-inf) of CNS(=O)(=O)Nc1cccc(Cc2c(CN(C)C)c3ccc(OC(=O)N(C)C)cc3oc2=O)c1F [Compound A] , please.
-- reply 37100

----------
assay comment: Single dose PK profile in Colon-26 tumor bearing mice
Assay type: in vivo
condition set: female, mouse, po, 100 mg/kg; plasma; 100 mpk p.o.; 2nd of two values in cell
quantity measured: bioavailability (%)
Please reply with the bare figure in % and do not write the unit itself.

-- ask Recorded bioavailability of CNS(=O)(=O)Nc1cccc(Cc2c(CN(C)C)c3ccc(OC(=O)N(C)C)cc3oc2=O)c1F [Compound A] , please.
-- reply 100

----------
Below: a set of entries, each annotated with reported Microsome stability, % Remaining @1 hour.
assay comment: Microsome Stability (% remaining @1 hour)
Format: in vitro ADME
condition set: SD Rat; 2 μM
Please reply with the bare figure in % and do not write the unit itself.

[
  {
    "compound": "CNS(=O)(=O)Nc1nccc(Cc2c(C)c3ccc(Oc4ncccn4)cc3oc2=O)c1F [Reference 2]",
    "Microsome stability, % Remaining @1 hour / %": 102.0
  },
  {
    "compound": "Cn1cnc2c(F)c(Nc3ccc(Br)cc3Cl)c(C(=O)NOCCO)cc21 [Reference 1, Selumetinib]",
    "Microsome stability, % Remaining @1 hour / %": 54.6
  }
]

-- ask Recorded Microsome stability, % Remaining @1 hour of CNS(=O)(=O)Nc1cccc(Cc2c(C)c3ccc(OC(=O)N(C)C)cc3oc2=O)c1F [Reference 7] , please.
-- reply 2.7

-- ask Please give the result for `CNS(=O)(=O)Nc1cccc(Cc2c(CN(C)C)c3ccc(OC(=O)N(C)C)cc3oc2=O)c1F` too.
-- reply 28.8
